system: PPARg:RXRa (NR concentration 180 nM, RXRa partner concentration 90 nM); experiment: PBM binding z-score (relative to random genomic background probes); higher = stronger binding; sequences stand for … in GC…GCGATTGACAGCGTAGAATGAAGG
Labels assigned by PBM binding z-score range: lower segment: < 2; middle segment: ≥ 2 and < 5; upper segment: ≥ 5

{"columns": ["Sequence input", "Assigned class"],
 "data": [
  ["CGAACTAGGTCACCAGGACAGTGGAGAGGTTGGA", "upper segment"],
  ["CCGAGTAGGTTACGAGGGGGCATGCAGTGCGAAT", "middle segment"],
  ["CTCGAAAGGTCGTCCTCAGGTGAGTATACCAAAC", "middle segment"],
  ["CGAACTAGGTCAAAGGATAGTGAAAGGCGACGTA", "upper segment"],
  ["CGAACTAGCTCAAAGGACAGTGAAAGGCGACGTA", "lower segment"],
  ["TCGAGGAGGTTACGGGGGCATTCAGGGATGAAGA", "upper segment"],
  ["CCAACTAGGTCATTGACAGGACAGTGAATAGTAA", "upper segment"],
  ["ATCGAAAGGTCGACGAGGTGAGTATGCACCGTTT", "middle segment"],
  ["CCTTACGGGCCACGAGGTTATAGCACGACGAGCG", "lower segment"],
  ["CCTAGCAGGCCAATCGGGGTCACTCAAGGCTTGA", "middle segment"],
  ["ATCGAAATGTCGTGAGGTGAGTATACAGAAAGGC", "lower segment"],
  ["TCGAGTAGGGTACGGGGGCATTCAGGGATGAAGA", "middle segment"],
  ["CTATGTAGGTTAAGCGGGTCATTCAGTTTGAAAG", "upper segment"],
  ["CCTACTGGGCCAAAAAGGTAATTGATGCCGATAA", "lower segment"],
  ["CTATGCAGGTTAAGGGGGTCATTCAGTTTGAAAG", "upper segment"],
  ["ACTAGGTGGTCAGCTGAGGTCACACACAATTCGG", "middle segment"],
  ["ATCTCTAGGTAACAAGGTCAGTGAAAGAGAGGAC", "middle segment"],
  ["TCGAGTAGGTTACGGGGGCATTCAGGGATGAAGA", "upper segment"],
  ["CCTAGTTGGTCAAGGTCACACATGCTATAGGTAC", "middle segment"],
  ["CTATGTAGGTTAAGGGGGTCATTCAGTTTGAAAG", "upper segment"],
  ["CCGAGTAGATTACGAGGGGGCATTCAGTGCGAAT", "lower segment"],
  ["ATCGAAAGGTCGTGAGGTGACTATACAGAAAGGC", "middle segment"],
  ["ATATGAAGGTTATCGGGTCATTCAGTTTGCGCAT", "middle segment"],
  ["TAGCCTAGGTCATTTGGCCAGTATAGTACGCATC", "middle segment"],
  ["GCTGCTAGGTCGACTGATGGTCAGCTAAAGCTCG", "lower segment"],
  ["CCTAGTTGGTCAGGAGGTCACATACCGGATATGA", "middle segment"],
  ["TATCCTAGGTCAGATCGGGCCAGTATACGCTATA", "lower segment"],
  ["CGTCGGAGGACAACAGGAGGTCAGAGCTGCCAGA", "lower segment"],
  ["TCGAGTAGGTTACGGGGGCATTTAGGGATGAAGA", "upper segment"],
  ["CCGAGTAGGTAACGAGGGGGCATTCAGTGCGAAT", "lower segment"],
  ["ATATGTAGGTTAGGGTTATTCAGAAAGTAGGGAA", "upper segment"],
  ["CCTGCTAGTTCAATGGTCAGCTAAAGCAGCTCGC", "lower segment"],
  ["TAGCCTAGGTCATGCGGGTCAGTATAGTGTCGGC", "middle segment"],
  ["TCTTATAGATCAATAGAGGTTAAGAAAGTGCGCT", "lower segment"]
]}
